Each record here notes measured koff.
Molecular target: HIV-1 HXBc2 gp120 (HIV-1 (HXBc2), UniProt P04578)
Test: SPR
Write the number in s⁻¹ without appending the unit.

// solved cases for koff follow
[
  {
    "binder": "Fab m18 F99A (HCDR3) (Fab, V domains shown) VH: VQLLESGPGVVKPSETLSLTCTVSGASVNNYYWTWVRQPPGKGLEWIGNVYDSGDTNYNPSLSSRLSLSMDTSKNQFSLRLSSVTAADTATYYCARYHRHAIRGPLSFDYWGRGTLVTVSS VL: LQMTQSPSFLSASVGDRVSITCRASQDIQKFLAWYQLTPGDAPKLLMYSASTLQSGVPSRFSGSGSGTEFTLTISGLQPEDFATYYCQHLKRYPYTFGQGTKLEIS",
    "measurement_units": "s⁻¹",
    "experimental_result": 0.00013
  },
  {
    "binder": "Fab m18 S52A (LCDR2) (Fab, V domains shown) VH: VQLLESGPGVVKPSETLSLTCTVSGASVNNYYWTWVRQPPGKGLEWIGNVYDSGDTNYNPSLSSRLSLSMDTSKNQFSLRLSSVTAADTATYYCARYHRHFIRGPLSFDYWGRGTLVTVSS VL: LQMTQSPSFLSASVGDRVSITCRASQDIQKFLAWYQLTPGDAPKLLMYSAATLQSGVPSRFSGSGSGTEFTLTISGLQPEDFATYYCQHLKRYPYTFGQGTKLEIS",
    "measurement_units": "s⁻¹",
    "experimental_result": "2e-05"
  }
]

Turning to the following binder.
Report koff for Fab m18 I100A (HCDR3) (Fab, V domains shown) VH: VQLLESGPGVVKPSETLSLTCTVSGASVNNYYWTWVRQPPGKGLEWIGNVYDSGDTNYNPSLSSRLSLSMDTSKNQFSLRLSSVTAADTATYYCARYHRHFARGPLSFDYWGRGTLVTVSS VL: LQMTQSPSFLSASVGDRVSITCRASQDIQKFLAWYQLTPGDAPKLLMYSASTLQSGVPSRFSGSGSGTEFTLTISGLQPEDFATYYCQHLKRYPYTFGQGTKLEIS 4.6e-05
